System: Fibroblast
Experiment: Incucyte cell viability with human fibroblast; further: unitless GR value; below 1 slowed growth and below 0 cell loss
Format: toxicity, cell-based
Conditions: 12 h, 10 µM, compound concentration 10 uM, replicate number 1, timepoint 12 hours
property: Growth Rate

[
  {
    "compound": "CSCC[C@H](NC(=O)[C@H](CC(C)C)NC(=O)CNC(=O)[C@H](Cc1ccccc1)N(C)C(=O)[C@H](Cc1ccccc1)NC(=O)[C@H](CC(=O)O)NC(=O)CCC(=O)O)C(N)=O [SENKTIDE]",
    "result": 0.98
  },
  {
    "compound": "CC(C)COc1ccc(CNC(=O)N(Cc2ccc(F)cc2)C2CCN(C)CC2)cc1 [PIMAVANSERIN]",
    "result": 0.37
  },
  {
    "compound": "COC(c1ccccc1)(c1ccccc1)[C@H](Oc1nc(C)cc(C)n1)C(=O)O [AMBRISENTAN]",
    "result": 0.97
  },
  {
    "compound": "O=C(NCC(=O)N1CC[C@H](N[C@H]2CC[C@@](O)(c3ccc(-c4ncccn4)cn3)CC2)C1)c1cccc(C(F)(F)F)c1 [PF-4136309]",
    "result": 0.15
  },
  {
    "compound": "CC(C)NCC(O)COc1cccc2[nH]ccc12 (configuration not stated) [PINDOLOL]",
    "result": 0.78
  },
  {
    "compound": "C[C@H]1[C@H]2CC[C@H]3[C@@H]4CC=C5C[C@@H](N(C)C)CC[C@]5(C)[C@H]4CC[C@]23CN1C [CONESSINE]",
    "result": 0.18
  },
  {
    "compound": "COC(=O)[C@H]1[C@H]2C[C@H]3c4[nH]c5ccccc5c4CCN3C[C@H]2CC[C@@H]1O.Cl [RAUWOLSCINE HYDROCHLORIDE]",
    "result": 0.59
  }
]

----------
Test system: Fibroblast
Test: Incucyte cell viability with human fibroblast; further: unitless GR value; below 1 slowed growth and below 0 cell loss
Format: toxicity, cell-based
Settings: 0 h, 10 µM, compound concentration 10 uM, replicate number 2, timepoint 0 hours
*1 amine or outer side, *2 acyl side, *3 side chain or, on linkers, in order; H or OH if unused. Where a SMILES comes first, the peptide text is derived from it. Bridges are numbered along the chain shown (N, C = ends). [ ]: non-standard residue; d: D form. Arg(Me) = CNC(=N)NCCC[C@H](N)C(=O)O; d3Pal = N[C@H](Cc1cccnc1)C(=O)O; X1 = O=C(CCC[*:2])[*:1]; azaGly = NNC(=O)O
property: Growth Rate

[
  {
    "compound": "CN1CCC(C(=O)c2cccc(NC(=O)c3c(F)cc(F)cc3F)n2)CC1",
    "property": "Growth Rate",
    "result": 0.32
  },
  {
    "compound": "N=C(N)NCCC[C@H](NC(=O)COCC(c1ccccc1)c1ccccc1)C(=O)O.O=C(O)C(F)(F)F",
    "property": "Growth Rate",
    "result": 0.91
  },
  {
    "compound": "Br.CS(=O)(=O)Nc1c(O)ccc2c1CCCC2C1=NCCN1 (configuration not stated)",
    "property": "Growth Rate",
    "result": 0.39
  },
  {
    "compound": "CC(C)N(CCCCOCC(=O)NS(C)(=O)=O)c1cnc(-c2ccccc2)c(-c2ccccc2)n1 [SELEXIPAG]",
    "property": "Growth Rate",
    "result": 0.34
  },
  {
    "compound": "OCc1cc(C(O)CNCCCCCCOCCCCc2ccccc2)ccc1O (configuration not stated) [SALMETEROL]",
    "property": "Growth Rate",
    "result": 0.63
  },
  {
    "compound": "CCNC(=O)[C@H]1O[C@@H](n2cnc3c(N)nc(NCCc4ccc(CCC(=O)O)cc4)nc32)[C@H](O)[C@@H]1O.Cl",
    "property": "Growth Rate",
    "result": 0.98
  },
  {
    "compound": "CCCN(CCC)[C@@H]1CCc2ccc3[nH]c(C#N)cc3c2C1.Cl",
    "property": "Growth Rate",
    "result": -0.06
  },
  {
    "compound": "CNC(=N)NCCC[C@H](NC(=O)[C@H](CC(C)C)NC(=O)NNC(=O)[C@H](Cc1ccccc1)NC(=O)[C@H](CO)NC(=O)[C@H](CC(N)=O)NC(=O)[C@@H](Cc1cccnc1)NC(=O)[C@H](N)Cc1ccc(O)cc1)C(=O)NCC(N)=O [KISS1-543] (H-[dY][d3Pal]NSF[azaGly]L[Arg(Me)]G-NH2)",
    "property": "Growth Rate",
    "result": 0.66
  },
  {
    "compound": "CN1CCC(c2c[nH]c3ccc(O)cc23)CC1",
    "property": "Growth Rate",
    "result": -0.25
  },
  {
    "compound": "CN(C)C(=O)Cn1cc(-c2ccc(-c3nnc4ccccn34)cc2)cn1",
    "property": "Growth Rate",
    "result": 0.31
  },
  {
    "compound": "Cc1onc(-c2ccccc2Cl)c1C(=O)N(C)c1ccc(Cl)cc1",
    "property": "Growth Rate",
    "result": 0.86
  },
  {
    "compound": "O=C(O)CCC/C=C\\CC1C(O)CC(O)C1/C=C/C(O)COc1cccc(Cl)c1 (configuration not stated) [CLOPROSTENOL]",
    "property": "Growth Rate",
    "result": 0.34
  },
  {
    "compound": "N#Cc1cc2c(OCC(O)CN3CCN(C(c4ccccc4)c4ccccc4)CC3)cccc2[nH]1 (racemic)",
    "property": "Growth Rate",
    "result": 0.94
  },
  {
    "compound": "CNC(=O)c1nn(C)c2c1C(C)(C)Cc1cnc(Nc3ccc(N4CCN(C)CC4)cc3)nc1-2 [MILCICLIB]",
    "property": "Growth Rate",
    "result": 1
  },
  {
    "compound": "Nc1cnc(N2CCc3cc(S(=O)(=O)Nc4c(F)cc(Cl)cc4F)cc(N4CCCC4=O)c32)nc1 [TP-020n]",
    "property": "Growth Rate",
    "result": -0.22
  },
  {
    "compound": "CC[C@H](C)[C@@H]1NC(=O)[C@H](Cc2ccc(OC)cc2)NC(=O)CCCSC[C@@H](C(=O)N2CCC[C@H]2C(=O)N[C@@H](CC(C)C)C(=O)NCC(N)=O)NC(=O)[C@H](CC(N)=O)NC(=O)[C@H](CCC(N)=O)NC1=O [CARBETOCIN] (Y(Me)IQNCPLG-NH2; linker N-5 via X1)",
    "property": "Growth Rate",
    "result": 0.98
  },
  {
    "compound": "CCOc1nc2cccc(C(=O)O)c2n1Cc1ccc(-c2ccccc2-c2nnn[nH]2)cc1",
    "property": "Growth Rate",
    "result": 0.54
  }
]
